Some compounds, each annotated with its measured activity, negative = inhibition.
- METHOD SUMMARY: qHTS profiling for inhibitors of Plasmodium falciparum proliferation (AID 504749);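 further: 0% = DMSO vehicle and full inhibition = artemisinin control; nearly all actives have a fitted effect of over 60% in size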
- SETUP CONDITIONS: P. falciparum in erythrocytes, SYBR Green DNA, 72 h; at 28.7 µM (top of the series); parasite line B
Results filed as inconclusive are left out. The source made the active and inactive calls. The call rests on the fitted dose curve; in most records, active means well fitted inhibition curve with a large enough effect; inconclusive means small, poorly fitted or top-dose-only effect; inactive means flat fitted curve, though single readings scatter. Numbered stars: 1 amine (or outer) side, 2 acyl side, 3 side chain; on linkers, the order of the positions; unused ones are H or OH. Bridge positions count the residues as written; N and C are the ends. Square brackets hold non-standard residues; d marks the D form. Peptide text beside a SMILES is read from it. * marks the point of attachment. ξ: configuration not given here. ΔAla(Z-3-ureido) = NC(=O)N/C=C(\N)C(=O)O; X2 = NC1=NC(O)CC(C(N[*:1])C(=O)[*:2])N1; ξβ3hOrn = NCCCC(N)CC(=O)*; Dap = NC[CH](N)C(=O)O

Some compounds with known activity, negative = inhibition results, for comparison:
compound="CC(C)C(NC(=O)C(CC(=O)O)NC(=O)C(CCCCN)NC(=O)C(N)CCCN=C(N)N)C(=O)NC(Cc1ccc(O)cc1)C(=O)O (centres undefined) (H-RKDVY-OH; configuration not given here)" measured_endpoint="activity, negative = inhibition" result_value="3.22% (inactive)"
compound="CCOC(=O)C(CS)NCCN[C@@H](CS)C(=O)OCC (some centres undefined)" measured_endpoint="activity, negative = inhibition" result_value="-3.46% (inactive)"
compound="NCCCC(N)CC(=O)NC1CNC(=O)C(C2CC(O)N=C(N)N2)NC(=O)/C(=C/NC(N)=O)NC(=O)C(CO)NC(=O)C(CO)NC1=O (stereo not drawn) (ξβ3hOrn-[Dap]SS[ΔAla(Z-3-ureido)][X2]; lactam 1-C; configuration not given here)" measured_endpoint="activity, negative = inhibition" result_value="6.39% (inactive)"

Task item: Tell me activity, negative = inhibition reported for CCC(Oc1ccccc1)C(=O)NC1C(=O)N2C1SC(C)(C)C2C(=O)O (centres undefined)
Reply: 10.5% (inactive)

* * *

- ASSAYED TARGET: Phosphoglycerate kinase, glycosomal (Trypanosoma brucei brucei)
- METHOD SUMMARY: qHTS for inhibitors of Phosphogylcerate Kinase: Hit Validation Screen (AID 686980); further: potency means the concentration at half of the fitted maximal effect; nearly all actives have a fitted effect of over 65% in size
- SETUP CONDITIONS: TbPGK coupled GAPDH assay, Kinase-Glo luminescence
The list shows a part of the results. Inconclusive results are not listed. Activity calls are given as the source filed them. Calls follow the shape of the dose curve; as a rule, active = well fitted inhibition curve with a large enough effect; inconclusive = small, poorly fitted or top-dose-only effect; inactive = no such curve, though single readings can be large or run the other way.
MEASURED ENDPOINT: Potency

Some compounds with known Potency results, for comparison:
compound="Cc1c(CC(=O)N2CCN(C(=O)C3COc4ccccc4O3)CC2)c(=O)oc2c(O)c(O)ccc12 (centres undefined)" result_value="2.59 µM (active)"
compound=Cc1ccnc(NC(=O)c2ccoc2C)c1 result_value="14.6 µM (active)"
compound=COCCCn1c(Cc2csc(Nc3cccc(Cl)c3)n2)nnc1SCC(=O)OC1CCCCC1 result_value="9.19 µM (active)"
compound=Cc1ccc(-c2nc(SCc3ccc(Br)cc3)n3[nH]c(=O)cc3n2)cc1 result_value="9.19 µM (active)"
compound=Cc1nonc1C(=O)N/N=C/c1ccc(O)cc1 result_value="5.8 µM (active)"

Task item: Tell me Potency reported for O=C1/C(=C/c2cccs2)CCc2ccccc21
Reply: 14.6 µM (active)

Task item: Tell me Potency reported for C=CCn1c(C)cc(C2=NNC(=NCC)SC2)c1C
Reply: 11.6 µM (active)

Task item: Tell me Potency reported for COc1ccc(Cl)cc1NC(=O)CCS(=O)(=O)c1ccc(Br)cc1
Reply: 5.17 µM (active)

Task item: Tell me Potency reported for C=CC1=C(C(=O)O)N2C(=O)[C@@H](NC(=O)/C(=N/OCC(=O)O)c3csc(N)n3)[C@H]2SC1
Reply: 0.116 µM (active)
